# subjectOfTest: UGT2B7 (Homo sapiens)
# Sequence (P16662 24-529): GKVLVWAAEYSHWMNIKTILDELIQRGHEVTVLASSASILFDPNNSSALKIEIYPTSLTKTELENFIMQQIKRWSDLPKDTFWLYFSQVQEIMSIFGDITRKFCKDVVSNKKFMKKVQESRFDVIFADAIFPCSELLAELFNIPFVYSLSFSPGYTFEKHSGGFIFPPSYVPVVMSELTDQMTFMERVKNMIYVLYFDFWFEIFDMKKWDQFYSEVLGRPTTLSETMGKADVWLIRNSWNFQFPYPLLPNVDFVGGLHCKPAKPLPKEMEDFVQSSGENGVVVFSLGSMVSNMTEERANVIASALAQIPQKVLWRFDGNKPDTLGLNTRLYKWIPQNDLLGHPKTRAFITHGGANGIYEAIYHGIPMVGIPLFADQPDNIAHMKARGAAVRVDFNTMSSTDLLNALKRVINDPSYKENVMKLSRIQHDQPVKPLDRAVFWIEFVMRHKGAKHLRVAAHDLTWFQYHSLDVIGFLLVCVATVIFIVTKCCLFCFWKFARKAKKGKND
# measurementProtocol: Enzyme kinetic assay (Ki, Dixon plot) of UGT2B7-mediated zidovudine glucuronidation
# conditions: human, pH 7.6
parameterMeasured: Km (µM)
Reply numerically in µM, unit not repeated.

query: Need Km, item Cc1cn([C@H]2C[C@H](N=[N+]=[N-])[C@@H](CO)O2)c(=O)[nH]c1=O [zidovudine]
result: 85

---

# measurementProtocol: Pharmacokinetic study of zidovudine with or without sauchinone in mice
# conditions: mouse, plasma, iv, 15 mg/kg, CL, mice; zidovudine 15 mg/kg iv with oral 100 mg/kg sauchinone; mean ± SD, n = 11
parameterMeasured: clearance

query: Need clearance, item "Cc1cn([C@H]2C[C@H](N=[N+]=[N-])[C@@H](CO)O2)c(=O)[nH]c1=O"
result: 2.92 L/h/kg

---

# measurementProtocol: Pharmacokinetic study of zidovudine with or without sauchinone in mice
# conditions: mouse, plasma, iv, 15 mg/kg, MRT, mice; zidovudine 15 mg/kg iv with oral 100 mg/kg sauchinone; mean ± SD, n = 11
parameterMeasured: MRT (min)
Reply numerically in min, unit not repeated.

query: Need MRT, item Cc1cn([C@H]2C[C@H](N=[N+]=[N-])[C@@H](CO)O2)c(=O)[nH]c1=O [zidovudine]
result: 43.5

---

# subjectOfTest: Ugt1a1 (Mus musculus, UniProt Q63886)
# Construct: from tissue; host or cells: mouse liver microsomes prepared in house
# Sequence (Q63886 30-535): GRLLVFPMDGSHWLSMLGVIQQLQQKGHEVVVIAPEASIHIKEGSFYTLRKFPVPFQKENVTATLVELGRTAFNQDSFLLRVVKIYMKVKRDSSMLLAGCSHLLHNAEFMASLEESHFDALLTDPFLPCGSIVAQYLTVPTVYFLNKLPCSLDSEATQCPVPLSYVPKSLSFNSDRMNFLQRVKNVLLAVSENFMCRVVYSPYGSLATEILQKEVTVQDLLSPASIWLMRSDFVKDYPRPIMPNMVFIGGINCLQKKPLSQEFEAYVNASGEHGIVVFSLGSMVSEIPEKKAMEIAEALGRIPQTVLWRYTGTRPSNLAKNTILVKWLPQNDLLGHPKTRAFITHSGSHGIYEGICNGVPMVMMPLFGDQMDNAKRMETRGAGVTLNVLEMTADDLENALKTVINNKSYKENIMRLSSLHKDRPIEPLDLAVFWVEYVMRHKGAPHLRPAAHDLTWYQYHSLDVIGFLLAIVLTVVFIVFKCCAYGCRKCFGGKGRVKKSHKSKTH
# measurementProtocol: Inhibition of Ugt1a1 (β-estradiol) in mice liver microsomes
# Format: in vitro ADME
# conditions: pH 7.6, probe β-estradiol (10 μM, in UGT substrate cocktail), read-out: IC50 of Ugt1a1-catalyzed β-estradiol
parameterMeasured: IC50 (µM)
Reply numerically in µM, unit not repeated.

query: Need IC50, item "C[C@@H]1[C@H]2c3cc4c(cc3O[C@@]35OCOC3=CC(=O)[C@H](C[C@H]1C)[C@@H]25)OCO4"
result: 152

---

# measurementProtocol: Pharmacokinetic study of zidovudine with or without sauchinone in mice
# conditions: mouse, plasma, iv, 15 mg/kg, AUC, time zero to infinity; mice; zidovudine 15 mg/kg iv with oral 100 mg/kg sauchinone; mean ± SD, n = 11
parameterMeasured: AUC (µg·h/mL)
Reply numerically in µg·h/mL, unit not repeated.

query: Need AUC, item "Cc1cn([C@H]2C[C@H](N=[N+]=[N-])[C@@H](CO)O2)c(=O)[nH]c1=O"
result: 5.82
